Each entry below lists one item and its recorded pIC50 value.
Test system: A549
Test: Cytotoxicity against human A549 cells after 72 hrs by SRB assay
Settings: A549, 72 h
pIC50: −log10 of the molar value.
ASSAY ENDPOINT: pIC50

>>> observed("NCCCCNc1c2c3ccccc3nc-2oc2ccc(Br)cc12")
5.13
>>> observed("NCCCNc1c2c3ccccc3nc-2oc2ccccc12")
5.37
>>> observed("NCCCCNc1c2c3ccccc3nc-2oc2ccccc12")
5.41
>>> observed("COc1ccc2oc3nc4ccccc4c-3c(N3CCOCC3)c2c1")
4.97
>>> observed("COc1ccc2oc3nc4ccccc4c-3c(NCCCN)c2c1")
5.03
>>> observed("NCCCCNc1c2c3ccccc3nc-2oc2ccc(Cl)cc12")
5.25
>>> observed("CN1CCCN(c2c3c4ccccc4nc-3oc3ccc(Cl)cc23)CC1")
4.97
>>> observed("NCCCNc1c2c3ccccc3nc-2oc2ccc(Cl)cc12")
5.25
>>> observed("NCCCNc1c2c3ccccc3nc-2oc2ccc(Br)cc12")
5.21

Source listed as ChEMBL document CHEMBL2151016.
